# PROTOCOL DETAILS: Characterization of lipid nanoparticles encapsulating Fluc-mRNA prepared from different cap structures
# Assay type: physicochemical
# CONDITION DETAILS: LNP with Fluc-mRNA transcribed using the named cap analog
READOUT LABEL: PDI
Write the number on its own, no unit after it.

Task: Supply PDI value. Item: CO[C@@H]1[C@H](OP(=O)(O)OC[C@H]2O[C@@H](n3cnc4c(=O)[nH]c(N)nc43)[C@H](O)[C@@H]2O)[C@@H](COP(=O)(O)OP(=O)(O)OP(=O)(O)OC[C@H]2O[C@@H]([n+]3cn(C)c4c(=O)[nH]c(N)nc43)[C@H](O)[C@@H]2C(C)F)O[C@H]1n1cnc2c(N)ncnc21 (stereo partly shown)
Result: 0.035

Task: Supply PDI value. Item: CO[C@@H]1[C@H](OP(=O)(O)OC[C@H]2O[C@@H](n3cnc4c(=O)[nH]c(N)nc43)[C@H](O)[C@@H]2O)[C@@H](COP(=O)(O)OP(=O)(O)OP(=O)(O)OC[C@H]2OC([n+]3cn(C)c4c(=O)[nH]c(N)nc43)[C@H](O)[C@@H](O)[C@@H]2O)O[C@H]1n1cnc2c(N)ncnc21 (stereo partly shown)
Result: 0.043

Task: Supply PDI value. Item: COC[C@H]1[C@@H](O)[C@H]([n+]2cn(C)c3c(=O)[nH]c(N)nc32)O[C@@H]1COP(=O)(O)OP(=O)(O)OP(=O)(O)OC[C@H]1O[C@@H](n2cnc3c(N)ncnc32)[C@H](OC)[C@@H]1OP(=O)(O)OC[C@H]1O[C@@H](n2cnc3c(=O)[nH]c(N)nc32)[C@H](O)[C@@H]1O [HN3002, reference compound]
Result: 0.058

Task: Supply PDI value. Item: CO[C@@H]1[C@H](OP(=O)(O)OC[C@H]2O[C@@H](n3cnc4c(=O)[nH]c(N)nc43)[C@H](O)[C@@H]2O)[C@@H](COP(=O)(O)OP(=O)(O)OP(=O)(O)OC[C@@]2(OC)O[C@@H]([n+]3cn(C)c4c(=O)[nH]c(N)nc43)[C@H](O)[C@@H]2O)O[C@H]1n1cnc2c(N)ncnc21 [compound 5227, reference compound]
Result: 0.028

Task: Supply PDI value. Item: COC[C@]1(COP(=O)(O)OP(=O)(O)OP(=O)(O)OC[C@H]2O[C@@H](n3cnc4c(N)ncnc43)[C@H](OC)[C@@H]2OP(=O)(O)OC[C@H]2O[C@@H](n3cnc4c(=O)[nH]c(N)nc43)[C@H](O)[C@@H]2O)O[C@@H]([n+]2cn(C)c3c(=O)[nH]c(N)nc32)[C@H](O)[C@@H]1O
Result: 0.044

Task: Supply PDI value. Item: CO[C@@H]1[C@H](OP(=O)(O)OC[C@H]2O[C@@H](n3cnc4c(=O)[nH]c(N)nc43)[C@H](O)[C@@H]2O)[C@@H](COP(=O)(O)OP(=O)(O)OP(=O)(O)OC[C@H]2O[C@@H]([n+]3cn(C)c4c(=O)[nH]c(N)nc43)[C@H](O)[C@@H]2C(F)F)O[C@H]1n1cnc2c(N)ncnc21
Result: 0.033

Task: Supply PDI value. Item: CO[C@@H]1[C@H](OP(=O)(O)OC[C@H]2O[C@@H](n3cnc4c(=O)[nH]c(N)nc43)[C@H](O)[C@@H]2O)[C@@H](COP(=O)(O)OP(=O)(O)OP(=O)(O)OC[C@H]2O[C@@H](C[n+]3cn(C)c4c(=O)[nH]c(N)nc43)[C@H](O)[C@@H]2O)O[C@H]1n1cnc2c(N)ncnc21
Result: 0.053
